Measured values drawn from BindingDB's records for doi:10.1016/j.bmcl.2006.07.074 for this set.

biological target: DNA-directed RNA polymerase II (Bos taurus); assay: Inhibition of calf thymus DNA dependent RNA polymerase 2
outcome_measure: IC50

Entry O=C(O)c1ccc2c(C3CCCCC3)c(-c3ccoc3)[nH]c2c1 has what IC50?
> 125 µM
